experiment: Inhibition of Escherichia coli LpxC C63A mutant assessed as inhibition constant incubated for 30 mins by microplate reader analysis
Please go through the items and note down their pKi.
One number for each entry, as −log10 of the molar value.

The following compounds have reported results that may help.
O=C(NC[C@H](OCc1ccc(C#Cc2ccc(CN3CCOCC3)cc2)cc1)C(=O)NO)c1c[nH]c2ccccc12	7.97
O=C(NO)[C@H](CO)OCc1ccc(C#Cc2ccc(CN3CCOCC3)cc2)cc1	6.39

Please give pKi, item by item, for the list that follows.
1. O=C(NC[C@H](OCc1ccc(C#Cc2ccc(CN3CCOCC3)cc2)cc1)C(=O)NO)c1cnc2ccccc2c1
2. O=C(NO)[C@@H](CO)OCc1ccc(C#Cc2ccc(CN3CCOCC3)cc2)cc1
3. O=C(NC[C@H](OCc1ccc(C#Cc2ccc(CN3CCOCC3)cc2)cc1)C(=O)NO)c1cccc(-c2ccccc2)c1
4. Cc1noc(C)c1C(=O)NC[C@H](OCc1ccc(C#Cc2ccc(CN3CCOCC3)cc2)cc1)C(=O)NO

1. 6.93
2. 6.62
3. 7.38
4. 6.90

Consider the following items and state reported pKi for each.
1. O=C(NO)[C@H](OCc1ccc(C#Cc2ccc(CN3CCOCC3)cc2)cc1)[C@@H](O)COCc1ccccc1
2. O=C(NC[C@H](OCc1ccc(C#Cc2ccc(CN3CCOCC3)cc2)cc1)C(=O)NO)c1ccc(Oc2ccccc2)cc1
3. O=C(NC[C@@H](OCc1ccc(C#Cc2ccc(CN3CCOCC3)cc2)cc1)C(=O)NO)c1ccc2[nH]ccc2c1
4. O=C(NC[C@H](OCc1ccc(C#Cc2ccc(CN3CCOCC3)cc2)cc1)C(=O)NO)c1cc(-c2ccccc2)[nH]n1
5. O=C(NC[C@H](OCc1ccc(C#Cc2ccc(CN3CCOCC3)cc2)cc1)C(=O)NO)c1cc2ccccc2[nH]1
6. O=C(COCc1ccc(C#Cc2ccc(CN3CCOCC3)cc2)cc1)NO
7. O=C(NC[C@H](OCc1ccc(C#Cc2ccc(CN3CCOCC3)cc2)cc1)C(=O)NO)c1ccc2ccccc2n1

1. 6.06
2. 6.49
3. 5.94
4. 7.07
5. 7.06
6. 5.82
7. 6.42

Hi team, please reply with pKi for each item in this list.
1. O=C(NC[C@@H](OCc1ccc(C#Cc2ccc(CN3CCOCC3)cc2)cc1)C(=O)NO)c1c[nH]c2ccccc12
2. O=C(NO)[C@@H](OCc1ccc(C#Cc2ccc(CN3CCOCC3)cc2)cc1)[C@@H](O)COCc1ccccc1
3. O=C(NC[C@H](OCc1ccc(C#Cc2ccc(CN3CCOCC3)cc2)cc1)C(=O)NO)c1ccc2[nH]ccc2c1

1. 5.80
2. 6.55
3. 8.02
